Molecular target: T1, hIL27Ra-his (Origene, Catalog #TP307012) (human, UniProt Q6UWB1 33-516, limits assumed)
T1 construct: Bought his-tagged cytokine receptor used as SPR analyte; also called human IL27 receptor subunit alpha; not shown: his tag
T1 sequence: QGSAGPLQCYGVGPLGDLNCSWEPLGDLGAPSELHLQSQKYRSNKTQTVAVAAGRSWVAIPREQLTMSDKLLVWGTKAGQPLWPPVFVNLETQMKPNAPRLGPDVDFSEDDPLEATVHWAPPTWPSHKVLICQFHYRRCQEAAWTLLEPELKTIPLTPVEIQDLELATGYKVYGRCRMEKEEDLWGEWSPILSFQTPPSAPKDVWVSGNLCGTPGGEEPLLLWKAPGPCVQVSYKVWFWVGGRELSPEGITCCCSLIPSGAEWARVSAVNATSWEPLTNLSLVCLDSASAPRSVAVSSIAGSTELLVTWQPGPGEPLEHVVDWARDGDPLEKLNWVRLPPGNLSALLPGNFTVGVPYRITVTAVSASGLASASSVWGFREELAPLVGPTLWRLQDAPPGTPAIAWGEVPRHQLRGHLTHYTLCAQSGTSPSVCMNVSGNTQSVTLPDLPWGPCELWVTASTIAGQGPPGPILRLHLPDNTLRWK
Assay: SPR Biacore T200; ratio experimental/calculated Rmax
Surface Activity vs 10%: at or above is rule met, below is rule not met.

23-DR600 (SEQ ID NO. 248), anti-hIL27Ra Mono-Fc VHH (Fc fusion, Mono-Fc VHH ligand captured on a Protein A chip; not shown: mono-Fc part) QVQLQESGGGSVQSGGSLRLSCAASGFTYSTSNSWMAWFRQAPGKEREGVAAIYTVGGSIFYADSVRGRFTISQDATKNMFYLQMNTLKPEDTAMYYCAAASGRLRGKWFWPYEYNYWGQGTQVTVSS	rule met
20-DR597 (SEQ ID NO. 245), anti-hIL27Ra Mono-Fc VHH (Fc fusion, Mono-Fc VHH ligand captured on a Protein A chip; not shown: mono-Fc part) QVQLQESGGGLVQPGGSLRLSCAASGFTFSSYPMSWVRQAPGKGLEWISTISAGGDTTLYADSVKGRFTSSRDNAKNTLYLQLNSLKTEDAAIYYCAKRIDCNSGYCYRRNYWGQGTQVTVSS	rule not met
26-DR603 (SEQ ID NO. 251), anti-hIL27Ra Mono-Fc VHH (Fc fusion, Mono-Fc VHH ligand captured on a Protein A chip; not shown: mono-Fc part) QVQLQESGGGLVQPGGSLRLSCAASGFTFSLSSMSWVRQAPGKGLEWVSAISSGGASTYYTDSVKGRFTISRDNAKNMLYLQLNSLKTEDTAMYYCAKGGSGYGDASRMTSPGSQGTQVTVSS	rule met
24-DR601 (SEQ ID NO. 249), anti-hIL27Ra Mono-Fc VHH (Fc fusion, Mono-Fc VHH ligand captured on a Protein A chip; not shown: mono-Fc part) QVQLQESGGGSVQAGGSLRLSCVASGYVSCDYFLPSWYRQAPGKEREFVSIIDGTGSTSYAASVKGRFTASQDKGKNIAYLQMNTLKPEDTAMYYCKASCVRGRAISEYWGQGTQVTVSS	rule met

Now let's try a different one.
Test whether the binder 25-DR602 (SEQ ID NO. 250), anti-hIL27Ra Mono-Fc VHH (Fc fusion, Mono-Fc VHH ligand captured on a Protein A chip; not shown: mono-Fc part) QVQLQESGGGSVQAGGSLRLSCRASGSTYSNYCLGWFRQITGKEREGVAVINWVGGMLYFADSVKGRFTVSQDQAKNTVYLQMNSLKPEDTAMYYCAAESVSSFSCGGWLTRPDRVPYWGQGTQVTVSS records Surface Activity of 10% or higher. rule met
